B1: CPEB3 Ribozyme (parent)
chain: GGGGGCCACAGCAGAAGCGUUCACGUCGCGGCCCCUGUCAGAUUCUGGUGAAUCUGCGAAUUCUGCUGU

Variants of: B1
experimental.protocol: self-cleavage, relative activity (ratio to wild type); higher = more cleavage; co-transcriptional
Grouping by measured self-cleavage is done with the following cut points: low (below 0.3), intermediate (0.3 to below 0.9), high (0.9 or more)

Incoming: For this variant, which bin applies? GGGGGCCACAGCAGAAGCGUACACGUCGCGGCCCCUGUCAGAUUCUGCUGAAUCUGCGAAUUCUGCUGU [U21A G48C]
Outgoing: high

Incoming: Lookup GGGGGCCACAGCAGAAGGGUUCACGUCGCGGCCCCUGUCAGAUUCUUGUGAAUCUGCGAAUUCUGCUGU [C18G G47U]
Outgoing: low

Incoming: Lookup GGGGGCCAGAGCAGAAGCGUUCACGUCGCGGCCCCUGUCAGAUUCUGGUGAAUCUUCGAAUUCUGCUGU [C9G G56U]
Outgoing: high

Incoming: Would you mind doing GGGGGCCACAGCAGAAGCGUUCACGUCGCGGCCCCUGUCAGAUUCUGGUGAAUCUGCGAAUUGCGCUGU [C63G U64C] as well?
Outgoing: intermediate

Incoming: Follow-up item: GGGGGCCACAGCAGAAGCGUUCACGUCGCGGCCCCUGUCAAAUUCUGUUGAAUCUGCGAAUUCUGCUGU [G41A G48U]
Outgoing: high

Incoming: Request: GGGGGCCACAGCAGAAGCGUUCACGUCGCGGCCCCUGUCAGAUUCUGGUCAAUCUGCAAAUUCUGCUGU [G50C G58A]
Outgoing: high

Incoming: And GGGGGCCACAGCAGAAGCUUUCACGUCGCGGCCCCUGUCAGAUUCUGGUGAAUCUGCCAAUUCUGCUGU [G19U G58C] ?
Outgoing: intermediate

Incoming: Further, for GGGGGCCACAGCAGAAGCGUUCACGUCGCGGCCGCUGUCAGAUUCUGGUGACUCUGCGAAUUCUGCUGU [C34G A52C] ?
Outgoing: intermediate

Incoming: Query GGGGGCCACAGCAGAAGCGUUCACGUCGCGGCCCCUGUCAGAUUCUGGUGAUUCUGCGAAUUCUGCAGU [A52U U67A] next
Outgoing: high

Incoming: What would you report for GGGGGCCACAGCAGAAGCGUUCACGUCGCGGCCCCUAUCAGAUUCUGGUGAAUCUGCGACUUCUGCUGU [G37A A60C] ?
Outgoing: low

Incoming: And for GGGGGCCACAGCAGAAGCGUUCACGUCGCGGCCCCUGUCAUAUUCUGGUGAAUCUGCGAAUUCUGUUGU [G41U C66U] ?
Outgoing: intermediate

Incoming: Same for GGGAGCCACAGCAGAAGCGUUCACGUCGAGGCCCCUGUCAGAUUCUGGUGAAUCUGCGAAUUCUGCUGU [G4A C29A]
Outgoing: low

Incoming: What about GGGGGCCUCAGCAGAAGCGUUCACGUCGCGGCCCCUGUUAGAUUCUGGUGAAUCUGCGAAUUCUGCUGU [A8U C39U] ?
Outgoing: high

Incoming: What would you report for GGGGGCCACAACAUAAGCGUUCACGUCGCGGCCCCUGUCAGAUUCUGGUGAAUCUGCGAAUUCUGCUGU [G11A G14U] ?
Outgoing: low

Incoming: Here is the next variant: GGGGGCCACAGUAGAAGCGUUCACGUCGCGGCCCCUGUCAGAUUCUGGUGAAUCUGCGAACUCUGCUGU [C12U U61C]
Outgoing: intermediate

Incoming: Param item: GGGGGCCACAGCAGAAGCGUUCACGUCGCGGCCCCUGUCAUAUUCUAGUGAAUCUGCGAAUUCUGCUGU [G41U G47A]
Outgoing: high

Incoming: Same question, GGGGGCCACAGCAGCAGCGUUCACGUCGCGGCCCCUGUCAGAAUCUGGUGAAUCUGCGAAUUCUGCUGU [A15C U43A] this time
Outgoing: intermediate

Incoming: Ok, now GGGGGCCUCAGCAGAAGUGUUCACGUCGCGGCCCCUGUCAGAUUCUGGUGAAUCUGCGAAUUCUGCUGU [A8U C18U]
Outgoing: high

Incoming: Entry to check: UGGGGCCACAGCAGAAGCGUUCACGUCGCGGCCCCUGUCAGAUUCUGGUGAAUCUGCGAUUUCUGCUGU [G1U A60U]
Outgoing: low

Incoming: Try this variant too: GGGGGCCACAGCAGAAGCGUUCACGUCGCGGCCCGUGUUAGAUUCUGGUGAAUCUGCGAAUUCUGCUGU [C35G C39U]
Outgoing: low

Incoming: Also, GGGGGCCAGAGCAGAAGCGUUCACGUCGCGGCCCCUGUCAGAUUCGGGUGAAUCUGCGAAUUCUGCUGU [C9G U46G] please.
Outgoing: high

Incoming: Moving on to GGGGGCCACAGCAGAAGCGUUCACGUCGCGGCCCCUGUCAGAUUCUGGUGAAACGGCGAAUUCUGCUGU [U53A U55G]
Outgoing: intermediate

Incoming: Also need GGGGGCCACAACAGAAGCGUUCACGGCGCGGCCCCUGUCAGAUUCUGGUGAAUCUGCGAAUUCUGCUGU [G11A U26G] , thanks.
Outgoing: intermediate

Incoming: Moving on to the next variant: GGGGGCUACAGCAGAAGCGUUCACGUCGCGGCCCCUGUCAGAUUCUGGUGAAUCUGCGACUUCUGCUGU [C7U A60C]
Outgoing: low

Incoming: Also, GGGGGCCACAGCAGAAGCGUUCACGUCGCGGCCCCCGUCAGAUUCUGGUGAAUCUGCGAAUUCUGCUUU [U36C G68U] please.
Outgoing: high

Incoming: Now this one: GGGGGCCACAGCAGAAGCGUUCACGUCGCGGCCCCUGUCAGAUUCUGGUGAAUCUGCGAAAUCUGCUGC [U61A U69C]
Outgoing: high

Incoming: Further, for GGGGGCCACAGCAGAAGCGUUCACGUCGCGGCACCUGUAAGAUUCUGGUGAAUCUGCGAAUUCUGCUGU [C33A C39A] ?
Outgoing: low

Incoming: And for GGGGGCCACGGCAGAAGCGUUCACGUCGCGGCCCCUGUCAGAUUCUGGUGAAUCUGCGAAUCCUGCUGU [A10G U62C] ?
Outgoing: intermediate

Incoming: Further, for GGGGGCCUCAGCAGAAGCGUUCACGUCGCGGCCCCUGUCAGAUUCUGGUGCAUCUGCGAAUUCUGCUGU [A8U A51C] ?
Outgoing: high

Incoming: Thanks! And AGGGGCCACAGCAGAAGCGUUGACGUCGCGGCCCCUGUCAGAUUCUGGUGAAUCUGCGAAUUCUGCUGU [G1A C22G] ?
Outgoing: low

Incoming: Can you handle GGGGGCCACAGCAGAAGCGUUCACGUCGCGGCACCUGUCAGAUUCCGGUGAAUCUGCGAAUUCUGCUGU [C33A U46C] next?
Outgoing: intermediate
